Measurement target: hTRPV1 (Homo sapiens)
Construct: expressed in transfected cells; host or cells: HEK293
Sequence (Q8NER1 whole entry): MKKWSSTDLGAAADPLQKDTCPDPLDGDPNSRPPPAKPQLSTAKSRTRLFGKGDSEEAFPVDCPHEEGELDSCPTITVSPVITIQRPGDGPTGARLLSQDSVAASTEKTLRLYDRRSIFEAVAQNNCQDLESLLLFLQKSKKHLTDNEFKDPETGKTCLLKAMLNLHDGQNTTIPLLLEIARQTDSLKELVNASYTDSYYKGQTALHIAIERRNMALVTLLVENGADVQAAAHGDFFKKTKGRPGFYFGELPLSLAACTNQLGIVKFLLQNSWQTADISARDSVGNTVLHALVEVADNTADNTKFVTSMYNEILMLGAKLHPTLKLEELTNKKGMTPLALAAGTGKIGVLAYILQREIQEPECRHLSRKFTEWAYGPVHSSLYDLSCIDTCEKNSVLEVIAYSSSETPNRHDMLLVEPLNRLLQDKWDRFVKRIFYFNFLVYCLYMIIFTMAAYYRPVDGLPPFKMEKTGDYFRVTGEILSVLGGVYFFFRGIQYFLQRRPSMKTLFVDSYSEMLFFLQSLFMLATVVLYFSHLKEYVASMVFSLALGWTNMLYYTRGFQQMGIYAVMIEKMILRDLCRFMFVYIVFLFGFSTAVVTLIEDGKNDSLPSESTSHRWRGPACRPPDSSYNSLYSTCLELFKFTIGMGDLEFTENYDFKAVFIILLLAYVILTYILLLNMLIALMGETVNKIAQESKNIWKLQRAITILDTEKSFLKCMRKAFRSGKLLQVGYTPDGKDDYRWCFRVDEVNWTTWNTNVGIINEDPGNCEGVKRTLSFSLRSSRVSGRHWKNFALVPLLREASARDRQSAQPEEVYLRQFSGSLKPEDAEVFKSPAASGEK
Experiment: Human TRPV1 (hTRPV1) functional assay, FLIPR intracellular Ca2+, capsaicin challenge
Format: cell-based
Condition label: test concentration of 0.5 μm; HEK293 cells expressing hTRPV1, capsaicin 0.030 μM challenge; read-out: percent inhibition (symbol a)
Readout label: inhibition at 0.5 µM (%)

Worked examples, 5 compounds total:
{"Cpd smiles": "NS(=O)(=O)c1ccccc1-c1ccc2[nH]c(COc3ccc(S(=O)(=O)C(F)(F)F)cc3)nc2c1", "Readout label": "inhibition at 0.5 µM", "Measurement units": "%", "Val": 99}
{"Cpd smiles": "Cc1ccc(OCc2nc3cc(-c4ccccc4S(N)(=O)=O)ccc3[nH]2)cc1", "Readout label": "inhibition at 0.5 µM", "Measurement units": "%", "Val": 98}
{"Cpd smiles": "CC(=O)c1ccc(OCc2nc3cc(-c4ccccc4S(N)(=O)=O)ccc3[nH]2)cc1", "Readout label": "inhibition at 0.5 µM", "Measurement units": "%", "Val": 97}
{"Cpd smiles": "CC(C)(O)c1ccccc1-c1ccc2[nH]c(COc3cccc(C(F)(F)F)c3)nc2c1", "Readout label": "inhibition at 0.5 µM", "Measurement units": "%", "Val": 92}
{"Cpd smiles": "FC(F)(F)c1ccc(OCc2nc3cc(-c4ccccc4)ccc3[nH]2)cc1", "Readout label": "inhibition at 0.5 µM", "Measurement units": "%", "Val": 4}

I = NS(=O)(=O)c1ccccc1-c1ccc2[nH]c(COc3ccc4ccccc4c3)nc2c1
II = NS(=O)(=O)c1ccccc1-c1ccc2[nH]c(COc3ccc(C(F)(F)F)cn3)nc2c1
Problem: Record comparison, field inhibition at 0.5 µM: mark the lower of I and II . Selection: enter the item's label.
Solution: II
(II: 5%, I: 98%)
